Target: Ephrin type-B receptor 3 (Homo sapiens);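 further: values are mean percent inhibition of EPHB3 from the GSK PKIS screening panel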
Settings: at 1 µM
propertyName: inhibition (%)
The figure you give is taken to be in %; do not add the unit.

Reference set, count: 5
CS(=O)(=O)CCNCc1coc(-c2ccc3ncnc(Nc4ccc(OCc5ccccc5)cc4)c3c2)c1 = 4.34
Nc1nc(-c2cccc(Cl)c2)c(-c2ccc3ncccc3n2)s1 = 5.53
CCn1c(-c2nonc2N)nc2cnc(Oc3cccc(NC(=O)c4ccc(N(C)C)cc4)c3)cc21 = 3.26
CCn1c(-c2nonc2N)nc2c(C#CC(C)(C)O)ncc(OC3CCNCC3)c21 = 4.06
Nc1nc(-c2ccc(F)cc2)c(-c2ccc3ncccc3n2)s1 = 5.14

## Task Notebook entry, Ephrin type-B receptor 3 (Homo sapiens) assay: inhibition of COc1ccc(CNC(=O)c2ccc(-c3cc(-c4nnc(C)o4)ccc3C)cc2)cc1 = ?
## Result 0.39

## Task Notebook entry, Ephrin type-B receptor 3 (Homo sapiens) assay: inhibition of Fc1cccc(COc2ccc(Nc3ncnc4sc(-c5ccco5)cc34)cc2Cl)c1 = ?
## Result 4.99

## Task Notebook entry, Ephrin type-B receptor 3 (Homo sapiens) assay: inhibition of NS(=O)(=O)c1ccc(Nc2ncc(-c3ccccc3)o2)cc1 = ?
## Result 3.33

## Task Notebook entry, Ephrin type-B receptor 3 (Homo sapiens) assay: inhibition of COc1ccc(-c2cc(-c3c[nH]nc3-c3ccccn3)ccn2)cc1 = ?
## Result 2.2

## Task Notebook entry, Ephrin type-B receptor 3 (Homo sapiens) assay: inhibition of COC(=O)Nc1nc2ccc(Oc3ccc(NC(=O)Nc4cccc(Cl)c4)cc3)cc2[nH]1 = ?
## Result 5.18

###

Molecular target: Interleukin-1 receptor-associated kinase 4 (Homo sapiens) (UniProt Q9NWZ3);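 further: mean inhibition values, from the GSK PKIS dataset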
Sequence (Q9NWZ3 whole entry): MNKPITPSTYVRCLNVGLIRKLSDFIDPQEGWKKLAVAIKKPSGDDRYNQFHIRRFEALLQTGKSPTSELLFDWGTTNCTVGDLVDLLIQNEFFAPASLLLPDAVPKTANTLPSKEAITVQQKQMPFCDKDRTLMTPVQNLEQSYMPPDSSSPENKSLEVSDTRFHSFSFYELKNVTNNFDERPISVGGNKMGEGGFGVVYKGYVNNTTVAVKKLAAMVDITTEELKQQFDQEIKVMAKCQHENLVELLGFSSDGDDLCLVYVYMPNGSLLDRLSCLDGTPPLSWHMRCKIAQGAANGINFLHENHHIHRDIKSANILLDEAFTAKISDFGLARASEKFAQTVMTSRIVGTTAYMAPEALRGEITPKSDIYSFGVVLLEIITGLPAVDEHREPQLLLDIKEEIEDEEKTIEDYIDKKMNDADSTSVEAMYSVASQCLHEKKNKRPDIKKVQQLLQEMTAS
Details: at 1 µM
propertyName: inhibition (%)
The figure you give is taken to be in %; do not add the unit.

CNC(=O)c1cncc(/C=C/c2ccccc2Cl)c1 = 0.01
O=S(=O)(CCNCc1ccc(-c2ccc3ncnc(Nc4ccc(OCc5cccc(F)c5)c(Cl)c4)c3c2)o1)c1ccccc1 = 2.63
Fc1cccc(COc2ccc(Nc3ncnc4sc(-c5ccco5)cc34)cc2Cl)c1 = 1.26

## Task I have this molecule here, CS(=O)(=O)CCNCc1coc(-c2ccc3ncnc(Nc4ccc(OCc5ccccc5)cc4)c3c2)c1 , and I need its recorded inhibition.
## Result 2.23

## Task I have this molecule here, NS(=O)(=O)c1ccc(Nc2ncc(-c3ccccc3)o2)cc1 , and I need its recorded inhibition.
## Result 1.92

## Task I have this molecule here, COc1cc2ncn(-c3cc(OCc4ccccc4C(F)(F)F)c(C(=O)N(C)C)s3)c2cc1OC , and I need its recorded inhibition.
## Result -0.25

## Task I have this molecule here, CC(=O)NCc1cccc(C#Cc2cncnc2Nc2ccc(OCc3cccc(F)c3)c(Cl)c2)c1 , and I need its recorded inhibition.
## Result 0.5

## Task I have this molecule here, COC(=O)c1sc(-n2cnc3cc(OC)c(OC)cc32)cc1OCc1ccccc1C(F)(F)F , and I need its recorded inhibition.
## Result 1.88

## Task I have this molecule here, COC(=O)Nc1nc2ccc(Oc3ccc(NC(=O)Nc4cccc(Cl)c4)cc3)cc2[nH]1 , and I need its recorded inhibition.
## Result 0.32

###

Target: Inhibitor of nuclear factor kappa-B kinase subunit beta (Homo sapiens);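 further: reported as mean inhibition, from the GSK PKIS screening set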
Conditions: at 1 µM
Some molecules, each annotated with its measured inhibition.
The figure you give is taken to be in %; do not add the unit.

COc1ccc(-c2oc3ncnc(N)c3c2-c2ccc(NC(=O)Nc3cc(C(F)(F)F)ccc3F)cc2)cc1 = 5.27
CNC(=O)c1cc(-c2ccc(F)cc2)cc(-c2ccc(S(=O)(=O)N3CCCC3)cc2)c1N = 5.18

## Task I have this molecule here, CS(=O)(=O)CCNCc1coc(-c2ccc3ncnc(Nc4ccc(OCc5ccccc5)cc4)c3c2)c1 , and I need its recorded inhibition.
## Result 5.11

## Task I have this molecule here, Fc1ccc(-c2cc(-c3c[nH]nc3-c3ccccn3)ccn2)cc1 , and I need its recorded inhibition.
## Result 9.85

## Task I have this molecule here, CCN(CC)S(=O)(=O)c1ccc(OC)c(Nc2ncc(-c3ccccc3)o2)c1 , and I need its recorded inhibition.
## Result -0.16

###

Target: Casein kinase I isoform gamma-3 (Homo sapiens) (UniProt Q9Y6M4);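 further: reported value is the mean percent inhibition of the kinase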
Sequence (Q9Y6M4 whole entry, looked up, canonical isoform): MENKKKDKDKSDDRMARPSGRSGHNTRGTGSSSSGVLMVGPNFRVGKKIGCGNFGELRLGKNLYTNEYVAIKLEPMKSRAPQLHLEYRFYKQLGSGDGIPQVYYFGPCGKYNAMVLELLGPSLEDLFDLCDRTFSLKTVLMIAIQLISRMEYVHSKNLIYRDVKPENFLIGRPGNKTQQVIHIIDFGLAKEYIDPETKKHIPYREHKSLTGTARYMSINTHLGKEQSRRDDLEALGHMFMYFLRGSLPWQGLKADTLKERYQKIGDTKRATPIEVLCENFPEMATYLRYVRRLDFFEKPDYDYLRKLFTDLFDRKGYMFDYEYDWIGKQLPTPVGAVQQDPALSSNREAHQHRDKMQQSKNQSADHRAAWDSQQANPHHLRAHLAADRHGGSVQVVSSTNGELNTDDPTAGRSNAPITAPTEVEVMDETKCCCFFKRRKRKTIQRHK
Conditions: at 0.1 µM
propertyName: inhibition (%)
The figure you give is taken to be in %; do not add the unit.

Reference set, count: 4
Cc1cccc2c1NC(=O)/C2=N\Nc1ccc(S(N)(=O)=O)cc1 = 0.83
COC(=O)Nc1nc2ccc(S(=O)(=O)c3ccc(NC(=O)Nc4cc(C(F)(F)F)ccc4F)cc3)cc2[nH]1 = 2.17
CCc1nn2ncccc2c1-c1ccnc(NC2CC2)n1 = 1.24
CCOc1ccc2c(-c3ccnc(Nc4cccc(C(F)(F)F)c4)n3)cnn2n1 = 1.18

## Task I have this compound here, CCNC(=O)O[C@H]1CN[C@H](C#Cc2cc3ncnc(Nc4ccc(OCc5cccc(F)c5)c(Cl)c4)c3s2)C1 , and I need its recorded inhibition.
## Result 3.84

## Task I have this compound here, N#Cc1c(NC(=O)CN2CCOCC2)sc2c1CCCC2 , and I need its recorded inhibition.
## Result 4.84

## Task I have this compound here, CNC(=O)c1cccc(C#Cc2cncnc2Nc2ccc(OCc3cccc(F)c3)c(Cl)c2)c1 , and I need its recorded inhibition.
## Result 2.38

## Task I have this compound here, CCN(CC)S(=O)(=O)c1ccc(OC)c(Nc2ncc(-c3ccccc3)o2)c1 , and I need its recorded inhibition.
## Result -0.78

## Task I have this compound here, NS(=O)(=O)c1ccc(N/N=C2\C(=O)Nc3ccc4ncccc4c32)cc1 , and I need its recorded inhibition.
## Result 1.94

## Task I have this compound here, CC(=O)Nc1cccc(C#Cc2cncnc2Nc2ccc(OCc3cccc(F)c3)c(Cl)c2)c1 , and I need its recorded inhibition.
## Result 2.41

## Task I have this compound here, COc1ccc(-c2cc(-c3c[nH]nc3-c3ccccn3)ccn2)cc1 , and I need its recorded inhibition.
## Result 3.68

## Task I have this compound here, Fc1cccc(COc2ccc(Nc3ncnc4sc(-c5ccco5)cc34)cc2Cl)c1 , and I need its recorded inhibition.
## Result 3.95

## Task I have this compound here, CNC(=O)c1cc(-c2ccc(F)cc2)cc(-c2ccc(S(=O)(=O)N3CCCC3)cc2)c1N , and I need its recorded inhibition.
## Result 3.27

###

System: Serine/threonine-protein kinase B-raf (Homo sapiens), P15056 [V600E];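 further: mean inhibition of the BRAF V599E mutant, from GSK PKIS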
Sequence (P15056 whole entry V600E): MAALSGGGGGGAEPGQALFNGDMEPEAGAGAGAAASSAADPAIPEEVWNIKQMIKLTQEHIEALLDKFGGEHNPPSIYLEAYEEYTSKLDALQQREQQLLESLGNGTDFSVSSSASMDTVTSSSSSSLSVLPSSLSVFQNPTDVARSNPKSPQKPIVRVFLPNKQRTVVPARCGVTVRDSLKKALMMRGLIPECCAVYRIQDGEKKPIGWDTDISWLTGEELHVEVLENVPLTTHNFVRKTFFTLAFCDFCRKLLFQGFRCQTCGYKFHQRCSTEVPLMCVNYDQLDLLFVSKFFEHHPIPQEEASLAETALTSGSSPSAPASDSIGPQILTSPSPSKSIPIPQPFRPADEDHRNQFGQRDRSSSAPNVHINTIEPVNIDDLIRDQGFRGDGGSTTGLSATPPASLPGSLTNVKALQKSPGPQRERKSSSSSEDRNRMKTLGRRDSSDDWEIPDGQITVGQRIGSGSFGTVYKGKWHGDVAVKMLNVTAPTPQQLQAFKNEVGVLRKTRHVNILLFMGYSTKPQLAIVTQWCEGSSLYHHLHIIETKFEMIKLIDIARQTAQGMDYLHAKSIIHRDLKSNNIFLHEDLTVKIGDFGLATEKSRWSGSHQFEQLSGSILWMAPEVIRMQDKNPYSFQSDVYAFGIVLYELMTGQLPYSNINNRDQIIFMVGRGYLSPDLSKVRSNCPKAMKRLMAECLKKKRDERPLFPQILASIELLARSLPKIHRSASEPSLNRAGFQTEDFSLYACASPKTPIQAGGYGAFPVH
Settings: at 0.1 µM
Description: GSK_PKIS: BRAF (V599E mutant) mean inhibition at 0.1 uM [Nanosyn]
Some molecules, each annotated with its measured inhibition.

N#Cc1c(NC(=O)CN2CCOCC2)sc2c1CCCC2 = 5.95%
c1ccc(COc2ccc(Nc3ncnc4ccc(-c5ccco5)cc34)cc2)cc1 = 2.01%
[O-][S+]1CCN(Cc2ccc(-c3ccc4ncnc(Nc5ccc(OCc6cccc(F)c6)c(Cl)c5)c4c3)o2)CC1 = 5.36%
CCNC(=O)O[C@H]1CN[C@H](C#Cc2cc3ncnc(Nc4ccc(OCc5cccc(F)c5)c(Cl)c4)c3s2)C1 = 2.44%

Pending molecule:
## Task I have this molecule here, COc1cccc(-n2ncc3c(N/N=C/c4ccc(F)cc4)ncnc32)c1 , and I need its recorded inhibition.
## Result 5.77%

###

Some molecules, each annotated with its measured inhibition.
Target: Tyrosine-protein kinase TXK (Homo sapiens);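 further: value given is the mean percent inhibition of TXK kinase activity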
Conditions: at 1 µM
The figure you give is taken to be in %; do not add the unit.

CCNC(=O)O[C@H]1CN[C@H](C#Cc2cc3ncnc(Nc4ccc(OCc5cccc(F)c5)c(Cl)c4)c3s2)C1 = 3.99

## Task I have this molecule here, [O-][S+]1CCN(Cc2ccc(-c3ccc4ncnc(Nc5ccc(OCc6cccc(F)c6)c(Cl)c5)c4c3)o2)CC1 , and I need its recorded inhibition.
## Result 5.13

## Task I have this molecule here, O=C(Nc1n[nH]c2cc(-c3ccc(F)cc3)ccc12)C1CC1 , and I need its recorded inhibition.
## Result 3.11

###

Target: Dual specificity mitogen-activated protein kinase kinase 1 (Homo sapiens);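 further: values reported are mean inhibition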
Settings: at 1 µM
Some compounds, each annotated with its measured inhibition.
The figure you give is taken to be in %; do not add the unit.

COc1ccc2[nH]c3c4[nH]c5ccc(OC)cc5c4c4c(c3c2c1)C(=O)NC4=O = 7.06
COc1cc(Nc2nccc(Nc3ccc4c(C)n[nH]c4c3)n2)cc(OC)c1OC = 4.1
Cc1ccc(O)cc1Nc1ccnc2cc(-c3ccccn3)ccc12 = 4.87

## Task Notebook entry, Dual specificity mitogen-activated protein kinase kinase 1 (Homo sapiens) assay: inhibition of c1cc(-c2cnn3nc(N4CCOCC4)ccc23)nc(NC2CC2)n1 = ?
## Result 9.33

## Task Notebook entry, Dual specificity mitogen-activated protein kinase kinase 1 (Homo sapiens) assay: inhibition of CCc1nn2ncccc2c1-c1ccnc(NC2CC2)n1 = ?
## Result 2.39

###

Molecular target: Tyrosine-protein kinase ZAP-70 (Homo sapiens) (UniProt P43403)
Sequence (P43403 whole entry): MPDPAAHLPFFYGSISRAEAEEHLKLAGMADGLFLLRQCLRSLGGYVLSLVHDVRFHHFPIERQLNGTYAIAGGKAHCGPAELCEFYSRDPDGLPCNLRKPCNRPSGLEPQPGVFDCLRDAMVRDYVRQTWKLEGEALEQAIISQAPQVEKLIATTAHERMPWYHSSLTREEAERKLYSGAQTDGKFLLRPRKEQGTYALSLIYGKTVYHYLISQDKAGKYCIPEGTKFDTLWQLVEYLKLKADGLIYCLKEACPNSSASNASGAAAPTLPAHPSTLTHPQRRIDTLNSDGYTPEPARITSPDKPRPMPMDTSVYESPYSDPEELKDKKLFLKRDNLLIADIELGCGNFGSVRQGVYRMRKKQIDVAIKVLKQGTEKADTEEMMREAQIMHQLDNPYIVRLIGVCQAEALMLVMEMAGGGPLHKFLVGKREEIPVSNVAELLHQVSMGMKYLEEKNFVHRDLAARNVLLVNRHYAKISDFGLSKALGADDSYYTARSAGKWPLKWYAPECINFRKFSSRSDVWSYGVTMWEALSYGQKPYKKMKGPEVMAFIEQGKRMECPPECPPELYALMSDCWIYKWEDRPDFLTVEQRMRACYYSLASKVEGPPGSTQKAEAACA
Settings: at 1 µM
Description: GSK_PKIS: ZAP70 mean inhibition at 1 uM [Nanosyn]
propertyName: inhibition (%)
The figure you give is taken to be in %; do not add the unit.

Reference set, count: 2
CCOc1ccc2c(-c3ccnc(Nc4cccc(C(F)(F)F)c4)n3)cnn2n1 = 2.78
O=C(O[C@H]1CN[C@H](C#Cc2cc3ncnc(Nc4ccc(Cc5ccccc5)cc4)c3s2)C1)N1CCOCC1 = 2.04

## Task I have this molecule here, Nc1nc(-c2ccc(F)cc2)c(-c2ccc3ncccc3n2)s1 , and I need its recorded inhibition.
## Result 1.99

## Task I have this molecule here, O=S(=O)(CCNCc1ccc(-c2ccc3ncnc(Nc4ccc(OCc5cccc(F)c5)c(Cl)c4)c3c2)o1)c1ccccc1 , and I need its recorded inhibition.
## Result 1.7

## Task I have this molecule here, CCn1c(-c2nonc2N)nc2c(C#CC(C)(C)O)ncc(OC3CCNCC3)c21 , and I need its recorded inhibition.
## Result 1.77
